target: hACSS-2 (Homo sapiens (Human), UniProt Q9NR19); assay: Surface plasmon resonance (SPR) binding to immobilized hACSS-2; details: 1:1 binding model, mean, n = 3
Sequence (Q9NR19 whole entry): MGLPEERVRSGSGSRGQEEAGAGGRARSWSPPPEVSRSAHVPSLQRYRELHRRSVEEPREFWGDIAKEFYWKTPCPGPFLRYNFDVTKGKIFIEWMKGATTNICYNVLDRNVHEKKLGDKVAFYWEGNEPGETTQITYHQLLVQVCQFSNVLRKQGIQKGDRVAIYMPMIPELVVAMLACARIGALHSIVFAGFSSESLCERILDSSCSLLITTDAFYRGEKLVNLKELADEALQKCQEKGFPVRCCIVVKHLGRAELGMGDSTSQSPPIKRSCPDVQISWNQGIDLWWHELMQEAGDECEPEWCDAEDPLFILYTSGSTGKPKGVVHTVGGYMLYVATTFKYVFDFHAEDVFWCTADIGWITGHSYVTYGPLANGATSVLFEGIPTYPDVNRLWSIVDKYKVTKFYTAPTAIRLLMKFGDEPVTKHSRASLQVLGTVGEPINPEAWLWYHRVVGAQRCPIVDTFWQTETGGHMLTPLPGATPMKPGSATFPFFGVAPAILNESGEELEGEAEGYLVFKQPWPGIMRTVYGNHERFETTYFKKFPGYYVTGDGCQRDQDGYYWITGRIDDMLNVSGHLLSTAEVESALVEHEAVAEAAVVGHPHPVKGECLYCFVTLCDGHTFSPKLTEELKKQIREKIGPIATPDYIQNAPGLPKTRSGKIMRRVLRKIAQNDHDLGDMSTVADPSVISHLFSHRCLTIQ
Reported koff values are given for each entry in this list.
ENDPOINT_NAME: koff (s⁻¹)

{"columns": ["MOLECULE", "ENDPOINT_NAME", "VALUE"],
 "data": [
  ["Cc1cccn2c(CC(=O)NCCC(c3ccccc3)c3ccco3)cnc12 (stereo not shown)", "koff", 0.359],
  ["O=C(CC1CCNC1)NCCC(c1ccccc1)c1ccccc1 (stereo not shown)", "koff", 0.401],
  ["CN1CCC(O)(C(=O)NCCc2ccccc2Oc2ccccc2)CC1", "koff", 0.399],
  ["N[C@H](C(=O)N1CCCC(c2ccccc2)(c2ccccc2)C1)C1CC1", "koff", 0.547]
]}
